assay: Toxicity in po dosed albino Sprague-Dawley rat assessed as behavioral toxicity; assay type: organism-based; details: in vivo
Reported property: TD50

| Compound | Result |
| --- | --- |
| COC[C@@H](NC(C)=O)C(=O)NCc1ccccc1 [LACOSAMIDE] | > 500 mg/kg |

###

experiment: Toxicity in ip dosed albino CF1 mouse after 0.25 to 4 hrs by rotorod test; format: organism-based; settings: in vivo
Reported property: TD50

| Line notation | Reported property | Result |
| --- | --- | --- |
| Cl.NCc1ccc(-c2ccccc2)cc1 | TD50 | > 100 mg/kg |
| Cl.NCc1ccc(-c2cccc(Cl)c2)cc1 | TD50 | > 100 mg/kg |
| COc1cccc(-c2ccc(CN)cc2)c1.Cl | TD50 | > 100 mg/kg |
| Cl.NCc1ccc(-c2cccc(F)c2)cc1 | TD50 | > 100 mg/kg |
| Cl.NCc1ccc(-c2ccc(OC(F)(F)F)cc2)cc1 | TD50 | > 50 mg/kg |
| Cl.NCc1ccc(-c2ccc(Cl)cc2)cc1 | TD50 | > 50 mg/kg |
| Cl.NCc1ccc(-c2ccc(F)cc2)cc1 | TD50 | > 50 mg/kg |

###

test: Toxicity in po dosed albino Sprague-Dawley rat assessed as behavioral toxicity after 0.25 to 4 hrs; assay type: organism-based; conditions: in vivo
Listed compounds paired with reported TD50
Reported property: TD50

| Line notation | Reported property | Result |
| --- | --- | --- |
| COc1cccc(-c2ccc(CN)cc2)c1.Cl | TD50 | > 30 mg/kg |
| Cl.NCc1ccc(-c2ccc(F)cc2)cc1 | TD50 | > 30 mg/kg |
| Cl.NCc1ccc(-c2cccc(F)c2)cc1 | TD50 | > 30 mg/kg |
| COC(=O)c1cccc(-c2ccc(CN)cc2)c1.Cl | TD50 | > 30 mg/kg |
| Cl.NCc1ccc(-c2ccc(Cl)cc2)cc1 | TD50 | > 30 mg/kg |
| Cl.NCc1ccc(-c2ccc(OC(F)(F)F)cc2)cc1 | TD50 | > 30 mg/kg |
| Cl.NCc1ccc(-c2ccccc2OC(F)(F)F)cc1 | TD50 | > 30 mg/kg |
| Cl.NCc1ccc(-c2cccc(OC(F)(F)F)c2)cc1 | TD50 | > 500 mg/kg |
| Cl.NCc1ccc(-c2ccccc2)cc1 | TD50 | > 30 mg/kg |
| Cl.NCc1ccc(-c2cccc(Cl)c2)cc1 | TD50 | > 30 mg/kg |
